Attribute: SI COX-1/COX-2
# targetUnderTest: human recombinant COX-2 (Homo sapiens)
# Sequence (P35354 18-604): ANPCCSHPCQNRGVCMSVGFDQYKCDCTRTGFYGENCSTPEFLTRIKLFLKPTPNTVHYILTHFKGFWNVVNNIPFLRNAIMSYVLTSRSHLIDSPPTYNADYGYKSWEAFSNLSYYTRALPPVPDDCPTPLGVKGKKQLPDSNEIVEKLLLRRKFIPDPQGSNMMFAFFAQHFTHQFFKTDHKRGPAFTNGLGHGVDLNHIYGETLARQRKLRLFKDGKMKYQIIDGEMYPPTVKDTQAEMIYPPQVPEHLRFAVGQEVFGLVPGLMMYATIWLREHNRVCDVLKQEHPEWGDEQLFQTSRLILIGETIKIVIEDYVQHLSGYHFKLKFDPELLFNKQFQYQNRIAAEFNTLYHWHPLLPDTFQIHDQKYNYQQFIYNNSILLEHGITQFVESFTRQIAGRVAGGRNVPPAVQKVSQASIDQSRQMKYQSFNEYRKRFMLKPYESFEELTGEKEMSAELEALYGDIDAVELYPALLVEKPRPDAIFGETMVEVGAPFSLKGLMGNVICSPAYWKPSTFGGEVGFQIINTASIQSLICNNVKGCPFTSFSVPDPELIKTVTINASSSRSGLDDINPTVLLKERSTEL
# testName: In vitro COX-2 enzymatic assay (Cayman kit 560131)
# runConditions: COX-2 selectivity index: COX-1 IC50/COX-2 IC50
Answer with the value's number alone.

Check out these entries, answers already filled in.
CCCCNC(=O)c1cc(/N=N/c2ccc(S(=O)(=O)Nc3ncccn3)cc2)ccc1O = 145.5
O=C(c1cc(N=Nc2ccc(S(=O)(=O)Nc3nccs3)cc2)ccc1O)N1CCOCC1 = 102.1
NS(=O)(=O)c1ccc(/N=N/c2ccc(O)c(C(=O)NCc3ccccc3)c2)cc1 = 69.2
O=C(NCc1ccccc1)c1cc(/N=N/c2ccc(S(=O)(=O)Nc3ncccn3)cc2)ccc1O = 109.4

CCCCNC(=O)c1cc(/N=N/c2ccc(S(=O)(=O)Nc3nccs3)cc2)ccc1O has a reported SI COX-1/COX-2 of 187.7

Sample O=C(c1cc(/N=N/c2ccc(S(=O)(=O)Nc3nccs3)cc2)ccc1O)N1CCCCC1 ; SI COX-1/COX-2 observed: 136.6

Form field SI COX-1/COX-2, entry O=C(c1cc(/N=N/c2ccc(S(=O)(=O)Nc3ncccn3)cc2)ccc1O)N1CCCCC1 : 239.2

Looking up Cc1ccnc(NS(=O)(=O)c2ccc(/N=N/c3ccc(O)c(C(=O)N4CCCCC4)c3)cc2)n1 , I found its SI COX-1/COX-2 recorded as 111.9

* * *

# System: Staphylococcus epidermidis (RCMB 0100183)
# testName: Inhibition zone, agar cup diffusion
# runConditions: RCMB0100183, 24 h, read-out: inhibition zones (IZ) S. epidermidis
The entries below come with measured zone of inhibition at 1000 µg/mL values attached.
Use mm as the unit, but write only the number.

See these solved cases before continuing.
O=C(NCc1ccccc1)c1cc(/N=N/c2ccc(S(=O)(=O)Nc3nccs3)cc2)ccc1O = 36
O=C(c1cc(/N=N/c2ccc(S(=O)(=O)Nc3ncccn3)cc2)ccc1O)N1CCOCC1 = 33
CCCCNC(=O)c1cc(/N=N/c2ccc(S(=O)(=O)Nc3ncccn3)cc2)ccc1O = 30
O=C(NCc1ccccc1)c1cc(/N=N/c2ccc(S(=O)(=O)Nc3ncccn3)cc2)ccc1O = 32
CCCCNC(=O)c1cc(/N=N/c2ccc(S(=O)(=O)Nc3nccs3)cc2)ccc1O = 34

Sample Cc1ccnc(NS(=O)(=O)c2ccc(/N=N/c3ccc(O)c(C(=O)N4CCCCC4)c3)cc2)n1 ; zone of inhibition at 1000 µg/mL observed: 32

// sample CC1(C)S[C@@H]2[C@H](NC(=O)[C@H](N)c3ccccc3)C(=O)N2[C@H]1C(=O)O [Ampicillin, reference compound] , its zone of inhibition at 1000 µg/mL was 32

Briefly, zone of inhibition at 1000 µg/mL measured for O=C(c1cc(N=Nc2ccc(S(=O)(=O)Nc3nccs3)cc2)ccc1O)N1CCOCC1 : 33

Measured zone of inhibition at 1000 µg/mL, NS(=O)(=O)c1ccc(/N=N/c2ccc(O)c(C(=O)N3CCCCC3)c2)cc1 : 29

* * *

# System: Pseudomonas aeruginosa (RCMB 0100243)
# testName: Inhibition zone, agar cup diffusion
# runConditions: RCMB0100243, 24 h, read-out: inhibition zones (IZ) P.aeruginosa
observationType: zone of inhibition at 1000 µg/mL (mm)
Express your answer in mm, writing the number without its unit.

The recorded zone of inhibition at 1000 µg/mL for O=C(NCc1ccccc1)c1cc(/N=N/c2ccc(S(=O)(=O)Nc3nccs3)cc2)ccc1O [Compound 5f] is 16

Origin of measurements: paper PMC9225712
